assay: Volume of distribution in rat at 1 mg/kg, iv; format: ADME, organism-based; design: dose 1 mg/kg, route intravenous; settings: in vivo
Value Type: Vd (L/kg)
Unit L/kg implied. Number only.

Challenge: Reported Vd for O=C(C(O)c1ccc(Br)cc1)N1CCN(c2ccc3[nH]ncc3c2)CC1 (centres undefined) : what is it?
Response given: 3.7

Challenge: Recorded Vd of NC(C(=O)N1CCC(Nc2ccc3[nH]ncc3c2)CC1)c1ccc(Br)cc1 (centres undefined) , please.
Response given: 1.7

Challenge: Quick one: Vd of O=C(C(O)c1ccc(Br)cc1)N1CCC(Nc2ccc3[nH]ncc3c2)CC1 (centres undefined) ?
Response given: 1.9

Challenge: Would you kindly share the measured Vd for NC(C(=O)N1CCN(c2ccc3[nH]ncc3c2)CC1)c1ccc(Br)cc1 (centres undefined) ?
Response given: 2.7
